Source listed as ChEMBL document CHEMBL1201862.

system: TK-10; experiment: NCI tumour cell line growth inhibition, 48 h
Calls of active or inactive are those of the source. No stated cut-off is given here; in the data, active = GI50 up to about 1.1 µM and inactive = higher.
Classes used: active, inactive

> print(dat)
                                   compound  classification
1  CN(C)Cc1ccc(C(C)(C)C)cc1-c1cc(C(C)(C)C)ccc1CN(C)C        inactive
2  O=C(Cc1nc2ccccc2s1)C(=O)Nc1cccc(C(F)(F)F)c1        inactive
3  O=C(N/C(=C/c1ccc(Cl)cc1)c1nc2ccccc2c(=O)n1Nc1ccc([N+](=O)[O-])cc1[N+](=O)[O-])c1ccccc1        inactive
4  COc1cc(CN[C@H]2CCc3cc(OC)c(OC)c(OC)c3-c3ccc(SC)c(=O)cc32)cc(OC)c1          active
5  CP(=O)(O)C(N)c1ccccc1 (stereo not given)        inactive

* * *

tested on: SK-MEL-2; test: NCI tumour cell line growth inhibition, 48 h
Where a name gives a salt, the structure may show the parent alone. Calls of active or inactive are those of the source. Cut-off read from the data, not from the text of the source: active = GI50 up to about 1.1 µM and inactive = higher.
PROPERTY_NAME: GI50

> print(dat)
                                    molecule       reported.value
 1           COc1cc(C/C=C/c2ccccc2)c(OC)cc1O   23.2 µM (inactive)
 2       CC1(C)NC(C)(C)/C(=N\O)C(=NO)/C1=N/O  > 100 µM (inactive)
 3  CC(C)=CCc1c(O)c(CC2=C(O)C(CC=C(C)C)(C(=O)C(C)C)C(O)=C(C)C2=O)c(O)c(C(=O)C(C)C)c1O (stereo unspecified)   11.5 µM (inactive)
 4  CCOC(=O)C(NC(C)=O)(Nc1ccc(S(N)(=O)=O)cc1)C(F)(F)F (stereo unspecified)  > 100 µM (inactive)
 5  Cc1ccc(S(=O)(=O)NC(=O)NC(CCC(N)=O)C(=O)O)cc1 (stereo unspecified)  > 100 µM (inactive)
 6  CC(C)OC(=O)OCSc1ccccc1/N=C/c1cccc([N+](=O)[O-])c1   > 10 µM (inactive)
 7  CCOP(C)(=O)C(Cc1c[nH]c2ccccc12)C(=O)O (stereo unspecified)  > 100 µM (inactive)
 8  CC(CN1c2ccccc2Sc2ccccc21)N(C)C (stereo unspecified) [PROMETHAZINE HYDROCHLORIDE]     18 µM (inactive)
 9  CC1=C(C(=O)O)N2C(=O)[C@@H](NC(=O)C(c3ccc(O)cc3)N3CSC(=S)N(C(C)C)C3)C2SC1 (stereo partly specified)  > 100 µM (inactive)
10  Oc1cn(-c2ccc(Cl)cc2)nc1-c1nnc(-c2ccccc2)o1   16.9 µM (inactive)
11  N=C(N)NS(=O)(=O)c1ccc(NCc2c3ccccc3nc3ccccc23)cc1   > 20 µM (inactive)
12  O=[N+]([O-])c1ccc(Sc2c3ccccc3nc3ccccc23)cn1   25.4 µM (inactive)
13  O=C1CCCC[C@H]1[C@H]1CCC[C@@H]([C@H]2CCCCC2=O)C1=O  > 100 µM (inactive)
14  CCCCCCCCCCCCOCCCOP(=O)([O-])OCC[N+](C)(C)C   43.5 µM (inactive)
15  CC(NO)/C(=N/O)c1ccco1 (stereo unspecified)   > 10 µM (inactive)
16       O=c1cc(N2CCCC2)[nH]c(=O)n1-c1ccccc1  > 100 µM (inactive)
17  C=CC1(C)CCC2=C(CCC3C(C)(C(=O)OC)CCCC23C)C1=O (stereo unspecified)   17.9 µM (inactive)
18  O=C(CCOS(=O)(=O)CF)N1CCN(C(=O)CCOS(=O)(=O)CF)CC1  > 100 µM (inactive)
19  Cc1ccc(-c2cc(-c3ccc(Cl)cc3)nc(/N=C3\C(=O)N(CN4CCOCC4)c4ccccc43)n2)cc1   18.3 µM (inactive)
20  CCC1(C)C=Cc2c(cc(OC)c3c(=O)c4ccccc4n(C)c23)O1 (stereo unspecified)   > 10 µM (inactive)
21  COc1cc(-c2cc(O)c3cc4c(cc3n2)OCO4)cc(OC)c1OC   92.7 µM (inactive)
